This listing pairs compounds with measured growth.
# Tested on: NCI-H226 lung
# measurementDescription: NCI-60 one-dose screen, 48 h (100 = growth as untreated, 0 = no growth, -100 = all killed)
# details: 10 µM unless noted
The panel holds about 83,000 compounds, 20% with a hit somewhere; the sample as a whole holds those more often.
Could you give me the number in %? Just the number is fine.

>  <molecule>
O=[N+]([O-])c1cc(S(=O)(=O)c2ccc(F)c([N+](=O)[O-])c2)ccc1F

>  <readoutLabel>
growth

>  <result>
109

$$$$

Ask: Entry CCc1nnc(NC(=O)c2ccoc2COc2ccccc2)s1 : reported growth = ?
Reply: 74.3

Ask: Quick check: growth of CC(=O)n1c(/C(C#N)=C/c2ccc(N(C)C)cc2)cc2ccccc21 ?
Reply: 61.1

Ask: // lookup growth for Nc1c(C(=O)Nc2cccc(Cl)c2)sc2ncc(Cl)cc12
Reply: 75.7

Ask: Query: growth; subject: Cc1ccnc2c(OCc3ccccc3)cccc12
Reply: 81.9

Ask: Which growth value belongs to Cn1cc(-c2csc(-c3c[nH]c4ccc(F)cc34)n2)c2cccnc21 ?
Reply: 59.7

* * *

The following compounds are shown together with reported growth values.
# System: BT-549 breast
# measurementDescription: NCI-60 one-dose screen, 48 h (100 = growth as untreated, 0 = no growth, -100 = all killed)
# details: 10 µM unless noted
# Experimental: Growth inhibition of the BT-549 human tumor cell line is measured as a screen for anti-cancer activity. Cells are grown in 96 well plates and exposed to the test compound for 48 hours. Compounds are tested at a single concentration, which is 10^-5 M for most compounds. The reported endpoint is percent growth (GI% or GIPRCNT), where numbers from 0 - 100% represent growth inhibition, and numbers from -100% - 0 represent cell death. For example, a value of 40 represents 60% growth inhibition. […]
This is part of a sample that, as a whole, favours compounds with a hit. Of some 83,000 tested, about 20% had one in any assay. Activity calls are given as the source filed them. The calls were made as follows: active = growth percent below 10; inactive = the rest.

Previously resolved entries follow.
>  <compound>
CCCCC/C(=C\c1ccccc1)C1OC(C)C(C)O1 (centres undefined)

>  <growth>
95.7% (inactive)

$$$$
>  <compound>
COc1ccc(NC(=O)c2ccc3c(c2)nc(-c2cc4ccccc4[nH]c2=O)n3-c2cc(C(C)(C)C)[nH]n2)cc1

>  <growth>
84.5% (inactive)

$$$$
>  <compound>
O=S(=O)(NCCNc1cc(-c2cn(-c3ccccc3)nc2-c2cccc(O)c2)ccn1)c1ccc(F)cc1

>  <growth>
32.2% (inactive)

$$$$
>  <compound>
Nc1nc(N)c2nc3c(nc2n1)CCCCCCCCCC3

>  <growth>
74.5% (inactive)

$$$$
>  <compound>
COc1ccc(-c2c(-c3nc4ccc(N5CCOCC5)cc4[nH]3)[nH]c(C)c2C(C)=O)cc1

>  <growth>
64.9% (inactive)

$$$$
>  <compound>
NC1(N)C=CC2=C(C=C1)C1(N)C3=C(C=CC(N)(N)C=C3)N2C2(N)C3=C(C=CC(N)(N)C=C3)N1C1=C2C=CC(N)(N)C=C1

>  <growth>
52.4% (inactive)

$$$$

Ask: Find growth (BT-549 breast) for the entry CCN(CC)C(=O)CCCCCn1c2ccccc2c2c3c(c4c5ccccc5[nH]c4c21)C(=O)N(O)C3=O
Reply: 56.8% (inactive)

Ask: Reported growth for BT-549 breast, given C=C(C)[C@@H]1CC[C@]2(C)[C@H](CC=C3[C@@H]4CC(C)(C)CC[C@]4(C=O)CC[C@]32C)[C@@]1(C)CCCN ?
Reply: 87.3% (inactive)

Ask: Kindly state the measured growth obtained for CCc1cccc(CC)c1NC(=O)c1sc2nc3c(cc2c1N)CCCC3 with BT-549 breast.
Reply: 74.8% (inactive)

* * *

# Test system: EKVX NSCLC
# measurementDescription: NCI-60 one-dose screen, 48 h
# details: 10 µM unless noted
This is part of a sample that, as a whole, favours compounds with a hit. Of some 83,000 tested, about 20% had one in any assay. Calls of active or inactive are those of the source. The calls were made as follows: active = growth percent below 10; inactive = the rest.
// classify into yes (1) (active), no (0) (inactive)

Example cases with answers are listed next.
>  <molecule>
CCN1CCN(C(=O)[C@]23CC[C@@H](C)[C@H](C)[C@H]2C2=CC[C@@H]4[C@@]5(C)C/C(=C/c6cccc(OC)c6OC)C(=O)C(C)(C)[C@@H]5CC[C@@]4(C)[C@]2(C)CC3)CC1

>  <assignedCategory>
no (0)

$$$$
>  <molecule>
CC1(C)C(=O)/C(=C\c2ccccn2)C[C@]2(C)[C@H]3CC[C@@H]4[C@@H](C(=O)/C=C/c5ccccn5)CC[C@@]4(C)[C@]3(C)CC[C@@H]12

>  <assignedCategory>
yes (1)

$$$$
>  <molecule>
CCCCCCCCNc1cccc2c1C(=O)c1ccccc1C2=O

>  <assignedCategory>
no (0)

$$$$

Ask: What classification did COc1ccc(-c2c(-c3nc4ccc(N5CCOCC5)cc4[nH]3)[nH]c(C)c2C(C)=O)cc1 end up with in this test?
Reply: no (0)

Ask: Dear colleague, could you share the recorded outcome for C=C(C)[C@@H]1CC[C@]2(C(=O)O)CC[C@]3(C)[C@H](CC[C@@H]4[C@@]5(C)C/C(=C/c6ccc(OC)cc6)C(=O)C(C)(C)[C@@H]5CC[C@]43C)[C@@H]12 when you have a moment?
Reply: yes (1)

Ask: Field: outcome | Entry: C[C@@H](Oc1ccc(C(=O)NS(=O)(=O)C(C)(C)C)cc1C(F)(F)F)c1ccc(Oc2ccccc2)cn1
Reply: no (0)

Ask: Assay outcome for Cc1ccc(N(CC(=O)Nc2ccc(S(=O)(=O)N3CCC(N4CCCC4)CC3)cc2)S(=O)(=O)c2ccc(Cl)cc2)cc1 : what was it?
Reply: no (0)

Ask: Field: outcome | Entry: Fc1ccc(Nc2nnc(-c3ccc(Cl)cc3)o2)cc1
Reply: no (0)

* * *

# System: NCI-H522 lung
# measurementDescription: NCI-60 one-dose screen, 48 h (100 = growth as untreated, 0 = no growth, -100 = all killed)
# details: 10 µM unless noted
This is part of a sample that, as a whole, favours compounds with a hit. Of some 83,000 tested, about 20% had one in any assay.
growth class ranges: LOW = under 30%, MID = from 30% up to 80%, HIGH = 80% and over

Ask: Record CCc1cccc(CC)c1NC(=O)c1sc2nc3c(cc2c1N)CCCC3 — which class?
Reply: MID

Ask: Which class holds C#CCn1c2c(c3ccccc31)C[C@]1(C)[C@H]3CC[C@@H]4[C@@H]5C(=CCC[C@H]5C(=C)C)CC[C@@]4(C)[C@]3(C)CC[C@H]1C2(C)C ?
Reply: HIGH

Ask: Consider O=c1c2sc3ncc(Br)cc3c2ncn1-c1cccc(Cl)c1 . To which growth class does it belong?
Reply: HIGH

Ask: Textbook exercise: identify the category of the molecule given here, CC1(C)c2ccccc2C(=O)C1(Br)Cc1ccccc1 (stereo not given) , according to its measured value.
Reply: HIGH

Ask: Textbook exercise: identify the category of the molecule given here, O=C1C(Cl)=C(Nc2ccc(S(=O)(=O)c3ccc(NC4=C(Cl)C(=O)c5ccccc5C4=O)cc3)cc2)C(=O)c2ccccc21 , according to its measured value.
Reply: LOW

Ask: Tag the class for Cc1ccc(/C=C(\C#N)c2cc3ccccc3n2C)cc1
Reply: MID

Ask: Band for the recorded growth of O=C1C(=O)N(CCCCn2cc(-c3ccccc3)nn2)c2ccccc21 ?
Reply: HIGH

Ask: Which class holds O=C1c2cccc3cccc(c23)C(=O)N1CC#Cc1ccc2c3c(cccc13)C(=O)N(CCO)C2=O ?
Reply: HIGH

Ask: Please indicate the class for COc1ccccc1CNc1nc(N)nc2[nH]c3ccc(O)cc3c12 based on its growth.
Reply: LOW

Ask: Which growth band matches C#Cc1cc2c(N)c(C(=O)c3cc(OC)c(OC)c(OC)c3)[nH]c2cc1OC ?
Reply: LOW

* * *

# Tested on: U251 CNS
# measurementDescription: NCI-60 one-dose screen, 48 h (100 = growth as untreated, 0 = no growth, -100 = all killed)
# details: 10 µM unless noted
About 83,000 compounds went through this panel and 20% of them were active in at least one assay; those are over-represented in the sample as a whole.
Catalogue of molecules with associated growth
I only need the number, in %, no unit after it.

>  <molecule>
Cn1cnc2c1c(=O)n(CCC(=O)Nc1ccc(F)cc1)c(=O)n2C

>  <growth (%)>
96.2

$$$$

Ask: Recorded growth of Cc1csc(-c2ccc3c(c2)COC3(CCCN(C)C)c2ccc(F)cc2)c1 (centres undefined) , please.
Reply: -45.1

Ask: So what does the record say about growth for CN1CCN(c2nc(-c3csc(-c4cccs4)n3)cc3ccccc23)CC1 ?
Reply: 28.8

Ask: Find the recorded growth belonging to COC(=O)[C@]12CC[C@@H](C)[C@H](C)[C@@H]1C1=CC[C@@H]3[C@@]4(C)C[C@@H](OC(C)=O)[C@H](O)[C@@](C)(COC(C)=O)[C@@H]4[C@H](O)C[C@@]3(C)[C@]1(C)CC2 and report it.
Reply: -94.2
